biological target: HLA-A*24:02 tetramers with exiting peptide TFQRK(DNP)PAAF (Homo sapiens, UniProt P04439, D101N/D140Y/D185E/E176V/E190D/F33S/G103R/G107R/I119L/I121M/I306V/K335N/L105A/L180Q/L300P/N151K/N90K/Q86E/Q94H/R106L/R138H/R89G/T104I/T345S/V100E/W191G/Y123F); construct: prepared as known in the art, for instance by deletion of the transmembrane domain and the cytoplasmic domain; made in house; assay: HLA-A*24:02 peptide exchange quantitation; format: binding; details: competing peptide 20 μM final, 4 hours; HLA-A*24:02 tetramer
Listed here: items and their measured % peptide exchange.
Answer with a number only, understood to be in %.

biosequence=FLSELTQQL property="% peptide exchange" numeric_result=23.65

Input: Given the sequence RAHYNIVTF , what is its reported % peptide exchange?
Output: 85.58

Input: Given the sequence RYMRWTYRF , what is its reported % peptide exchange?
Output: 101.29

Input: Given the sequence RVRAYTYSK , what is its reported % peptide exchange?
Output: 10.32

Input: Given the sequence ATDALMTGY , what is its reported % peptide exchange?
Output: 7.74

Input: Given the sequence GLADQLIHL , what is its reported % peptide exchange?
Output: 0.86

Input: Given the sequence AMAPRTLLL , what is its reported % peptide exchange?
Output: 81.62

Input: Given the sequence GYSLKLSKL , what is its reported % peptide exchange?
Output: 37.93

Input: Given the sequence IYSTVASSL , what is its reported % peptide exchange?
Output: 100.98

Input: Given the sequence LNMADKKET , what is its reported % peptide exchange?
Output: 10.32
